Tested on: OVCAR-4 ovarian
Assay: NCI tumour cell line growth inhibition, 48 h
Field: TGI. Provide a value for each of the molecules that follow.

| Molecule | TGI |
| --- | --- |
| N.N.N.N.O=C([O-])C(Cl)Cl.O=C([O-])C(Cl)Cl.[Co+3].[O-][Cl+3]([O-])([O-])[O-] | > 100 µM |
| CCOC(=O)c1s/c(=N\Nc2nc3ccccc3cc2C2OCCO2)n(Cc2ccccc2)c1C | > 100 µM |
| Cc1[nH]nc(C(=O)n2nc(N)c3ccccc32)c1[N+](=O)[O-] | > 100 µM |
| OC1(c2ccccc2)OC(C#Cc2ccccc2)(c2ccccc2)c2ccccc21 (centres undefined) | 5.85 µM |
| O=c1[nH]c2nc3ccccc3nc2[nH]c1=O | > 100 µM |

Below are some molecules; for each one, tell me its TGI.
1. CN(C)CC1CCC/C(=C\c2ccc(OC(=O)c3ccc(Cl)cc3)cc2)C1=O (centres undefined)
2. Cc1cc(C)c(C(=O)c2no[n+]([O-])c2C(=O)c2c(C)cc(C)c(Br)c2C)c(C)c1Br
3. Cc1[nH]c(=O)nc(NCCNCCO)c1C(=O)Nc1cccc2cc3ccccc3cc12
4. COc1ccc2cc(-c3c(-c4ccncc4)nc(-c4ccc(S(C)(=O)=O)cc4C)n3C)ccc2c1
5. Cc1cc(C)c(S(=O)(=O)N(CCCN)OCCCON(CCCN)S(=O)(=O)c2c(C)cc(C)cc2C)c(C)c1
6. N#CCCN(CCC#N)c1ccc(C(Sc2ccccc2)C(NC(=O)c2cc([N+](=O)[O-])ccc2Cl)C(=O)Sc2ccccc2)cc1 (centres undefined)
7. NC(=O)c1csc(C2(O)COC(CO)C2O)n1 (centres undefined)

["8.94 µM", "50 µM", "> 100 µM", "22 µM", "5.22 µM", "15.7 µM", "> 100 µM"]

====

System: LOX IMVI melanoma
Assay: NCI tumour cell line growth inhibition, 48 h
Please respond with reported TGI for every item in the list.

| Molecule | TGI |
| --- | --- |
| COc1ccc2nc(/C(N)=C\C#N)ccc2c1 | > 100 µM |
| COc1ccc(/C=c2\s/c(=C3/SC(=S)N(c4ccccc4)C3=O)n(-c3ccccc3)c2=O)cc1 | > 100 µM |
| NC(N)=NCCC1OC(=O)C2=C1c1c(O)ccc3nccc(c13)O2 (stereo unspecified) | > 100 µM |
| CCN(CC)C(=S)Oc1cc2oc(=O)cc(C)c2cc1Cl | > 100 µM |
| O=C(/C=C/C(=O)N1CCCC1)N1CCCC1 | > 100 µM |

Note: attention shifts to another entry.
Tell me the measured TGI of O=S(=O)(c1cc(Cl)ccc1Cl)n1ccnc1 , please.
> 100 µM

====

Tested on: K-562 leukemia
Experiment: NCI tumour cell line growth inhibition, 48 h
Observable: TGI

Solved entries:
| Molecule | Measured on | TGI |
| --- | --- | --- |
| CN(C)/N=C(/c1nc2ccc(Cl)cc2[nH]c1=O)C(O)c1ccc(C(O)/C(=N\N(C)C)c2nc3ccc(Cl)cc3[nH]c2=O)cc1 (stereo unspecified) | K-562 leukemia | > 100 µM |
| CO[C@H]1SC[C@H](OC(C)=O)[C@H](OC(C)=O)[C@H]1OC(C)=O | K-562 leukemia | > 100 µM |
| C/C(CCc1ccccc1)=N\NC(N)=S | K-562 leukemia | > 100 µM |
| CCC(CO)Nc1nc(NCc2ccccc2)c2ncn(C(C)C)c2n1 (stereo unspecified) | K-562 leukemia | > 100 µM |
| Cc1cc(S(=O)(=O)NC#N)c(S/C(=N\Nc2ccc([N+](=O)[O-])cc2)c2ccc(Cl)cc2)cc1Cl | K-562 leukemia | 80.3 µM |
| O=P(O)(O)c1ccccc1Oc1ccccc1 | K-562 leukemia | > 100 µM |

Answer for every listed entry: what is its TGI? The entries follow.
1. COc1ccc(/C=C2\CCCC(C(NO)c3ccc(OC)cc3)C2=NO)cc1 (stereo unspecified)
2. C/C(Cl)=N\OC(=O)Nc1ccc(C)cc1

> 100 µM
> 100 µM
